Tested on: human prostate cancer cell line LNCaP
Test Description: General cell cytotoxicity assay
Type: cell-based
Condition Description: 20μM, 72 hours, media and compounds replaced every 24 hours

Entry Smiles: O=C1c2c(O)cccc2Cc2cccc(O)c21
Target Entity: human prostate cancer cell line LNCaP
cytotoxicity to LNCaP cells: toxic

---

Target Entity: trypsin (Sus scrofa)
Sequence (P00761 9-231): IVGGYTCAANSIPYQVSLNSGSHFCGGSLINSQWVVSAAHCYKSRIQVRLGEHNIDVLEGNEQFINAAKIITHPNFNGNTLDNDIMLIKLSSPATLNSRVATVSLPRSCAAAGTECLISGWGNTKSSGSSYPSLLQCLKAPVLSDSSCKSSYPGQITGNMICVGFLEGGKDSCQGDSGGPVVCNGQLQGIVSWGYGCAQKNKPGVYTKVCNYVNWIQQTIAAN
Test Description: Trypsin activity assay, chromogenic substrate pyroGlu-Pro-Arg-pNA, kinetic
Type: biochemical
pIC50: −log10 of the molar value.
Endpoint Name: pIC50

Item: Cc1cccc(CN2CCN(C(c3ccccc3)c3ccc(Cl)cc3)CC2)c1 (stereo not shown) | System: trypsin (Sus scrofa) | pIC50: < 4.70
